# Test system: U2OS
# assay_notes: Incucyte cell viability with U2OS; further: filed as whole numbers so only -1 and 0 and 1 occur
# Assay type: toxicity, cell-based
# measurement_conditions: human, 18 h, 10 µM, compound concentration 10 uM, replicate number 1, timepoint 18 hours
readout_type: Growth Rate

compound: CN(C)CC[C@@H](c1ccc(Cl)cc1)c1ccccn1.O=C(O)/C=C\C(=O)O [DEXCHLORPHENIRAMINE MALEATE]
recorded_number: 0
--
compound: C[C@H](c1ccnc(Nc2nc3ccc(-c4cc(N(C)C)ncn4)cc3[nH]2)c1)N1CCN(C(=O)CC(F)(F)F)CC1
recorded_number: 0
--
compound: O=C(NCc1ccc(F)cc1)C1CCN(S(=O)(=O)c2cc(Cl)cc(Cl)c2)CC1
recorded_number: 0
--
compound: CC(C)CC(=O)N1CCc2nc(-c3ccc(Br)cc3)nc(N(C)Cc3ccccc3)c2C1
recorded_number: 0
--
compound: CCCCN(CCCC)C(=O)CN1C[C@@H](c2cc(OC)c3c(c2)OCO3)[C@H](C(=O)O)[C@H]1CC(C)(C)CCC.Cl
recorded_number: 0
--
compound: O=C(O)c1ccc2cc(-c3ccc(O)c(C45CC6CC(CC(C6)C4)C5)c3)ccc2c1
recorded_number: 1
--
compound: Cc1nc2sccn2c(=O)c1CCN1CCC(=C(c2ccc(F)cc2)c2ccc(F)cc2)CC1
recorded_number: 1
--
compound: Cc1nc(C#Cc2ccnc(Cl)c2)c(C)n1-c1ccc(OC(F)(F)F)cc1
recorded_number: 1
--
compound: CC(=O)N1CCC(c2ccc(C(=O)NC3=NCCN3)cc2C(F)(F)F)CC1
recorded_number: 1
--
compound: CCCCN(CCCC)C(=O)CN1C[C@@H](c2cc(OC)c3c(c2)OCO3)[C@H](C(=O)O)[C@H]1CC(C)(C)CCC
recorded_number: 0
--
compound: O=C(NC[C@H](O)CN1CCc2ccccc2C1)c1ccnc(NC2CCC2)c1
recorded_number: 0
--
compound: CNc1nc(Nc2cnn([C@H]3CCN(C4COC4)C[C@@H]3F)c2Cl)ncc1C(F)(F)F
recorded_number: 1
--
compound: O=C(Nc1cccnc1)c1cc(-c2ccnc(F)c2)ccc1OCc1ccccc1
recorded_number: 0
--
compound: CS(=O)(=O)N1CCN(Cc2cc3nc(-c4cccc5[nH]ncc45)nc(N4CCOCC4)c3s2)CC1
recorded_number: 0
--
compound: COc1cc2c(Nc3ccc(NC(=O)c4ccccc4)cc3)ncnc2cc1OCCCN1CCOCC1
recorded_number: 0
--
compound: C=CCN1C[C@H](C)N([C@H](c2ccc(C(=O)N(CC)CC)cc2)c2cccc(O)c2)C[C@H]1C
recorded_number: 1
--
compound: CNC(=O)c1cc(Oc2ccc(NC(=O)Nc3cc(C(C)(C)C)nn3-c3ccc4ncccc4c3)c(F)c2)ccn1
recorded_number: 0
--
compound: Cc1c(Oc2ccc(F)cc2)c(OC(C)C)nn1-c1ccc(C2CC2)cn1
recorded_number: 1
--
compound: Nc1nc2c(c(N3CCNCC3)n1)CCC1=C2[C@@H]2CCCC[C@@H]2O1
recorded_number: 1
--
compound: COc1ccc(COc2ccc(Cc3cnc(N)nc3N)cc2OC)cc1 [GW632580X]
recorded_number: 1
--
compound: CC(C)NCC(O)c1ccc(N)c(C#N)c1 (centres undefined)
recorded_number: 0
--
compound: CCN(CC)CCCCC1CCN(CC(=O)N2c3ccccc3C(=O)Nc3cccnc32)CC1
recorded_number: 1
--
compound: CCC(=O)N1CC[C@H](Nc2ncnc3c2CN(c2cnc(OC)c(C(F)(F)F)c2)CC3)C1
recorded_number: 0
--
compound: C1=N/C2=N/c3ccc(OCCN4CCCC4)c(c3)COC/C=C\COCc3cccc(c3)C(=C1)N2
recorded_number: 0
--
compound: CCCc1c(-c2ccc(O)cc2)nn(-c2ccc(O)cc2)c1-c1ccc(O)cc1
recorded_number: 0
--
compound: O=C(O)CC1CCC2(CC1)CCN(c1cc(OC(F)(F)F)ccc1Cl)CC2
recorded_number: 1
--
compound: CCC(=O)N[C@H]1CC[C@@H](C(=O)N(C)c2ccc(-c3nc4ccccc4o3)cc2)C1
recorded_number: 1
--
compound: c1ccc2oc(-c3csc(C4CCN(Cc5nc6ncccc6[nH]5)CC4)n3)cc2c1
recorded_number: 0
--
compound: CCCCC[C@H](O)/C=C/[C@@H]1[C@@H](C/C=C\CCCC(=O)O)[C@@H](O)C[C@H]1O
recorded_number: 1
--
compound: Nc1nc(NCc2ccccc2)nc(-c2cccc(CO)c2)n1
recorded_number: 1
--
compound: CC(C)N1CCC(C)(C)c2cc(C#Cc3ccc(C(=O)O)cc3)ccc21
recorded_number: 1
--
compound: CCn1c(-c2nonc2N)nc2cnc(Oc3cccc(NC(=O)c4ccc(OCCN5CCOCC5)cc4)c3)cc21 [GSK-269962A]
recorded_number: 1
--
compound: CCc1cc2c(cc1CC)CC(NC[C@H](O)c1ccc(O)c3[nH]c(=O)ccc13)C2
recorded_number: 0
--
compound: Cc1nc(Cc2cccc(C(F)(F)F)c2)sc1-c1ccc(C(N)=O)nc1 [TP-024n]
recorded_number: 0

###

# Tested on: HEK-293T
# assay_notes: Multiplex assay against HEK293T
# Assay type: toxicity, cell-based
# measurement_conditions: human, 12 h, 10 µM, compound concentration 10 uM, replicate 2
Decide by Total Cell Count: equal to or exceeding 200 means met, less means not met.

compound: CCn1c(-c2nonc2N)nc2cnc(Oc3cccc(NC(=O)c4ccc(OCCN5CCOCC5)cc4)c3)cc21 [GSK-269962A]
group_label: not met

compound: Cc1cc2c(cc1N1C(=O)c3cccc4c(CCCO)ccc(c34)C1=O)n(C)c(=O)n2C
group_label: met

compound: O=C(O)c1ccc2cc(-c3ccc(O)c(C45CC6CC(CC(C6)C4)C5)c3)ccc2c1 [O-DEMETHYLATED ADAPALENE]
group_label: met

compound: CCC(=O)O[C@]1(C(=O)SCF)[C@H](C)C[C@H]2[C@@H]3C[C@H](F)C4=CC(=O)C=C[C@]4(C)[C@@]3(F)[C@@H](O)C[C@@]21C [FLUTICASONE PROPIONATE]
group_label: not met

compound: COc1ccc(NS(=O)(=O)c2sc3ccc(Cl)cc3c2C)cc1N1CCNCC1.Cl
group_label: not met

compound: CN(C)CCOc1ccc(-c2nc(-c3ccncc3)c(-c3ccc4c(c3)CC/C4=N\O)[nH]2)cc1 [SB590885]
group_label: met

compound: c1ccc2oc(-c3csc(C4CCN(Cc5nc6ncccc6[nH]5)CC4)n3)cc2c1
group_label: met

compound: CNC(=O)c1cc(Oc2ccc(NC(=O)Nc3cc(C(C)(C)C)nn3-c3ccc4ncccc4c3)c(F)c2)ccn1 [REBASTINIB]
group_label: met

compound: Cl.Cl.NC1(c2ccc(-c3nc4ccn5c(=O)[nH]nc5c4cc3-c3ccccc3)cc2)CCC1
group_label: met

compound: COc1cc2c(Nc3ccc(NC(=O)c4ccccc4)cc3)ncnc2cc1OCCCN1CCOCC1
group_label: met

compound: Nc1ccc(C(=O)Nc2cccc(-c3nc(N4CCOCC4)c4oc5ncccc5c4n3)c2)cn1
group_label: met

compound: CCc1cc2c(cc1CC)CC(NC[C@H](O)c1ccc(O)c3[nH]c(=O)ccc13)C2 [INDACATEROL]
group_label: met

compound: Cl.Cl.Nc1ncnc2c1c(-c1cccc(OCc3ccccc3)c1)cn2[C@H]1C[C@@H](CN2CCC2)C1
group_label: met

compound: CCCn1c(=O)c2[nH]c(C34CC5CC(CC3C5)C4)nc2n(CCC)c1=O [ROLOFYLLINE]
group_label: not met

compound: Cc1cn(-c2cc(NC(=O)c3ccc4c(c3)CN(c3cncnc3)C[C@@H]4C)cc(C(F)(F)F)c2)cn1
group_label: met

compound: CC(C)N1CCC(C)(C)c2cc(C#Cc3ccc(C(=O)O)cc3)ccc21
group_label: met

compound: CC(C)(C)c1cnc(CSc2cnc(NC(=O)C3CCNCC3)s2)o1 [BMS-387032]
group_label: met

###

# System: U2OS
# assay_notes: Multiplex assay against U2OS
# Type: toxicity, cell-based
# measurement_conditions: human, 48 h, 10 µM, compound concentration 10 uM, replicate 1
The following compounds are listed with their measured Total Cell Count values.

compound: CCCn1c(=O)c2[nH]c(C34CC5CC(CC3C5)C4)nc2n(CCC)c1=O
Total Cell Count: 157
--
compound: CC(=O)c1cc(-c2cc(C(=O)NC3CC3)ccc2C)c2ncccn12
Total Cell Count: 381
--
compound: O=C(O)c1ccc2cc(-c3ccc(O)c(C45CC6CC(CC(C6)C4)C5)c3)ccc2c1
Total Cell Count: 213
--
compound: Cc1cc2c(cc1N1C(=O)c3cccc4c(CCCO)ccc(c34)C1=O)n(C)c(=O)n2C
Total Cell Count: 154
--
compound: Cc1nc(Cc2cccc(C(F)(F)F)c2)sc1-c1ccc(C(N)=O)nc1 [TP-024n]
Total Cell Count: 386

###

# Tested on: HEK-293T
# assay_notes: Incucyte cell viability with HEK293T; further: filed as whole numbers so only -1 and 0 and 1 occur
# Assay type: toxicity, cell-based
# measurement_conditions: human, 12 h, 10 µM, compound concentration 10 uM, replicate number 1, timepoint 12 hours

compound: N#Cc1cnc(Nc2cc(NC[C@H]3CNCCO3)c(C(F)(F)F)cn2)cn1
Growth Rate: 0

compound: CS(=O)(=O)N1CCN(Cc2cc3nc(-c4cccc5[nH]ncc45)nc(N4CCOCC4)c3s2)CC1
Growth Rate: 0

compound: CCCc1c(-c2ccc(O)cc2)nn(-c2ccc(O)cc2)c1-c1ccc(O)cc1
Growth Rate: 1

compound: O=C(O)COc1cccc(CN(Cc2ccc(-n3cccn3)cc2)S(=O)(=O)c2cccnc2)c1
Growth Rate: 1

compound: O=C(O)c1ccc2cc(-c3ccc(O)c(C45CC6CC(CC(C6)C4)C5)c3)ccc2c1
Growth Rate: 0

compound: N#Cc1c(N)nc(SCC(N)=O)c(C#N)c1-c1ccc(OCC2CC2)cc1
Growth Rate: 1

compound: COc1ccc(NS(=O)(=O)c2sc3ccc(Cl)cc3c2C)cc1N1CCNCC1.Cl
Growth Rate: 0

compound: CCCCc1nc2ccc(NC(=O)NC3CCCCC3)cc2n1Cc1ccc(-c2ccccc2C(=O)O)cc1
Growth Rate: 0

compound: CCCCC[C@H](O)/C=C/[C@@H]1[C@@H](C/C=C\CCCC(=O)O)[C@@H](O)C[C@H]1O
Growth Rate: 0

compound: CC(C)NCC(O)c1ccc(N)c(C#N)c1 (stereo not drawn)
Growth Rate: 0

compound: C=CCN1C[C@H](C)N([C@H](c2ccc(C(=O)N(CC)CC)cc2)c2cccc(O)c2)C[C@H]1C
Growth Rate: 0

compound: O=C(O)CC1CCC2(CC1)CCN(c1cc(OC(F)(F)F)ccc1Cl)CC2
Growth Rate: 0

compound: C1=N/C2=N/c3ccc(OCCN4CCCC4)c(c3)COC/C=C\COCc3cccc(c3)C(=C1)N2
Growth Rate: 0

compound: Cc1nc(C#Cc2ccnc(Cl)c2)c(C)n1-c1ccc(OC(F)(F)F)cc1
Growth Rate: 0

compound: CC(=O)c1cc(-c2cc(C(=O)NC3CC3)ccc2C)c2ncccn12
Growth Rate: 0

compound: CCn1c(-c2nonc2N)nc2cnc(Oc3cccc(NC(=O)c4ccc(OCCN5CCOCC5)cc4)c3)cc21 [GSK-269962A]
Growth Rate: 0

compound: CCCCN(CCCC)C(=O)CN1C[C@@H](c2cc(OC)c3c(c2)OCO3)[C@H](C(=O)O)[C@H]1CC(C)(C)CCC.Cl
Growth Rate: 0

compound: O=C(Nc1cccc2c(=O)cc(-c3nnn[nH]3)oc12)c1ccc(OCCCCc2ccccc2)cc1
Growth Rate: 0

Numbers sourced from ChEMBL document CHEMBL4689842.
